- System: influenza virus A/WSN/33 (H1N1)
- RUN DESCRIPTION: organism not typed
- Type: cell-based
- CONDITION LABEL: MDCK, 72 h; read-out: Cytopathic Effect Assay (A/WSN/33, H1N1) EC50
pEC50: −log10 of the molar value.
Reported pEC50 is given for each of the following molecules.
ENDPOINT NAME: pEC50

1. COc1ccccc1OCCNC(=O)c1ccc(Nc2ccnc3cc(OC(F)(F)F)ccc23)cc1    > 5.00
2. O=C(NC1CCCCC1)c1ccc(Nc2ccnc3cc(C(F)(F)F)ccc23)cc1    < 4.00
3. O=C(c1ccc(Nc2ccnc3cc(C(F)(F)F)ccc23)cc1)N1CCN(c2cccc(C(F)(F)F)c2)CC1    < 4.00
4. CCNC(=O)c1ccc(Nc2ccnc3cc(C(F)(F)F)ccc23)cc1    4.78
5. O=C(c1ccc(Nc2ccnc3cc(C(F)(F)F)ccc23)cc1)N1CCOCC1    < 4.00
6. COc1ccccc1OCCNC(=O)c1ccc(Nc2ccnc3ccc(Br)cc23)cc1    < 4.00
7. CC(C)NC(=O)c1ccc(Nc2ccnc3cc(C(F)(F)F)ccc23)cc1    5.00
8. Cc1ccccc1N1CCN(C(=O)c2ccc(Nc3ccnc4cc(C(F)(F)F)ccc34)cc2)CC1    < 4.00
9. COc1ccccc1OCCNC(=O)c1ccc(Nc2ccnc3ccccc23)cc1    > 5.00
10. COc1ccccc1OCCNC(=O)c1ccc(Nc2ccnc3ccc(C(F)(F)F)cc23)cc1    < 4.00
11. COc1ccccc1OCCNC(=O)c1ccc(Nc2ccnc3cc(C)ccc23)cc1    < 4.00
12. CCN(CC)CCCNC(=O)c1ccc(Nc2ccnc3cc(C(F)(F)F)ccc23)cc1    < 4.00
13. COc1ccccc1OCCNC(=O)c1ccc(Nc2ccnc3cc([N+](=O)[O-])ccc23)cc1    > 5.00
14. O=C(c1ccc(Nc2ccnc3cc(C(F)(F)F)ccc23)cc1)N1CCN(c2ccc(Cl)cc2)CC1    < 4.00
15. COc1ccccc1OCCNC(=O)c1ccc(Nc2ccnc3ccc(Cl)cc23)cc1    < 4.00
16. O=C(c1ccc(Nc2ccnc3cc(C(F)(F)F)ccc23)cc1)N1CCN(c2ccc(OC(F)(F)F)cc2)CC1    < 4.00
17. CCOc1ccc(N2CCN(C(=O)c3ccc(Nc4ccnc5cc(C(F)(F)F)ccc45)cc3)CC2)cc1    < 4.00

----------
- System: HEK293T cells
- RUN DESCRIPTION: in vitro
- Assay type: cell-based
- CONDITION LABEL: human, 72 h, 12.5 µmol·L−1
ENDPOINT NAME: HEK293T cells survival rate

1. CCCNC(=O)c1ccc(Nc2ccnc3cc(C(F)(F)F)ccc23)cc1 [Compound G03]    97.78±4.47%
2. COc1ccccc1OCCNC(=O)c1ccc(Nc2ccnc3ccc(Cl)cc23)cc1 [Compound G25]    99.13±1.95%
3. COc1ccccc1OCCNC(=O)c1ccc(Nc2ccnc3ccc(Br)cc23)cc1 [Compound G24]    91.88±3.61%
4. COc1ccccc1OCCNC(=O)c1ccc(Nc2ccnc3cc([N+](=O)[O-])ccc23)cc1 [Compound G23]    95.29±3.05%
5. COc1ccccc1OCCNC(=O)c1ccc(Nc2ccnc3c(C)cccc23)cc1 [Compound G20]    94.07±9.07%
6. O=C(c1ccc(Nc2ccnc3cc(C(F)(F)F)ccc23)cc1)N1CCN(c2ccc(Cl)cc2)CC1 [Compound G17]    78.02±11.06%
7. CCN(CC)CCCNC(=O)c1ccc(Nc2ccnc3cc(C(F)(F)F)ccc23)cc1 [Compound G06]    96.59±4.26%
8. COc1ccccc1OCCNC(=O)c1ccc(Nc2ccnc3ccccc23)cc1 [Compound G19]    103.11±7.45%
9. O=C(c1ccc(Nc2ccnc3cc(C(F)(F)F)ccc23)cc1)N1CCN(c2ccc(OC(F)(F)F)cc2)CC1 [Compound G15]    93.38±3.30%
10. CCNC(=O)c1ccc(Nc2ccnc3cc(C(F)(F)F)ccc23)cc1 [Compound G01]    93.22±5.27%
11. Cc1ccc(N2CCN(C(=O)c3ccc(Nc4ccnc5cc(C(F)(F)F)ccc45)cc3)CC2)cc1 [Compound G14]    89.38±1.59%
12. O=C(NC1CCCCC1)c1ccc(Nc2ccnc3cc(C(F)(F)F)ccc23)cc1 [Compound G09]    92.83±3.70%
13. O=C(NC1CCC(O)CC1)c1ccc(Nc2ccnc3cc(C(F)(F)F)ccc23)cc1 (stereo not drawn) [Compound G10]    98.12±8.96%
14. O=C(c1ccc(Nc2ccnc3cc(C(F)(F)F)ccc23)cc1)N1CCN(c2cccc(C(F)(F)F)c2)CC1 [Compound G16]    80.26±3.54%
15. CCOc1ccc(N2CCN(C(=O)c3ccc(Nc4ccnc5cc(C(F)(F)F)ccc45)cc3)CC2)cc1 [Compound G18]    70.43±2.98%
16. O=C(NCCCO)c1ccc(Nc2ccnc3cc(C(F)(F)F)ccc23)cc1 [Compound G05]    96.82±2.21%
17. O=C(c1ccc(Nc2ccnc3cc(C(F)(F)F)ccc23)cc1)N1CCOCC1 [Compound G12]    86.67±6.98%
18. O=C(NCCO)c1ccc(Nc2ccnc3cc(C(F)(F)F)ccc23)cc1 [Compound G04]    94.50±4.33%

Sourced from paper PMC9181126
